// IC50 collected for PSMA (Homo sapiens)
Readout Kind: IC50 (nM)

[[record]]
compound = "O=C(O)CC[C@H](NC(=O)N[C@@H](CCCCNC(=O)CCCCCCC(=O)NCCCC[C@H](NC(=O)[C@H](Cc1ccccc1)NC(=O)[C@H](Cc1ccccc1)NC(=O)CCC(C(=O)O)N1CCN(CC(=O)O)CCN(CC(=O)O)CCN(CC(=O)O)CC1)C(=O)O)C(=O)O)C(=O)O (stereo partly shown) [compound 11, DOTAGA-FFK(Sub-KuE)]"
meas_value = 10.2

[[record]]
compound = "O=C(O)CC[C@H](NC(=O)N[C@@H](CCCCNC(=O)CCCCCCC(=O)NCCCC[C@H](NC(=O)[C@H](Cc1ccccc1)NC(=O)[C@H](Cc1ccccc1)NC(=O)CN1CCN(CC(=O)O)CCN(CC(=O)O)CCN(CC(=O)O)CC1)C(=O)O)C(=O)O)C(=O)O [compound 10, DOTA-FFK(Sub-KuE), reference compound]"
meas_value = 13.1

[[record]]
compound = "O=C(O)CC[C@H](NC(=O)N[C@@H](CCCCNC(=O)CCCCCCC(=O)NCCCC[C@@H](NC(=O)[C@@H](Cc1ccccc1)NC(=O)[C@@H](Cc1ccccc1)NC(=O)CCC(C(=O)O)N1CCN(CC(=O)O)CCN(CC(=O)O)CCN(CC(=O)O)CC1)C(=O)O)C(=O)O)C(=O)O (stereo partly shown) [compound 12, DOTAGA-ffk(Sub-KuE)]"
meas_value = 13.9

[[record]]
compound = "O=C(O)CCc1ccc(O)c(CN(CCN(CC(=O)O)Cc2cc(CCC(=O)NCCCCCC(=O)NCCCC[C@H](NC(=O)N[C@@H](CCC(=O)O)C(=O)O)C(=O)O)ccc2O)CC(=O)O)c1 [HBED-CC-Ahx-KuE, reference compound]"
meas_value = 5.7

